Experiment: Cyclic voltammetry in dichloromethane
Type: physicochemical
Settings: vs SCE, dichloromethane, Bu4NPF6 0.1 M, 50 mV/s

[
  {
    "compound": "CCCCCCCCCCC(CCCCCCCC)Cn1c(=O)c2c3sc(C#N)c(C#N)sc3c3c(=O)n(CC(CCCCCCCC)CCCCCCCCCC)c(=O)c4c5sc(C#N)c(C#N)sc5c(c1=O)c2c34 (centres unmarked)",
    "unitAbbrev": "V",
    "half-wave potential E1/2^red1": "−0.16"
  },
  {
    "compound": "CCCCCCCCCCC(CCCCCCCC)Cn1c(=O)c2c3sc(=C(C#N)C(=O)OCC)sc3c3c(=O)n(CC(CCCCCCCC)CCCCCCCCCC)c(=O)c4c5sc(=C(C#N)C(=O)OCC)sc5c(c1=O)c2c34 (centres unmarked)",
    "unitAbbrev": "V",
    "half-wave potential E1/2^red1": "−0.21"
  },
  {
    "compound": "CCCCCCCCCCCCC(CCCCCCCCCC)Cn1c(=O)c2c3sc(=C(C#N)c4ccccc4)sc3c3c(=O)n(CC(CCCCCCCCCC)CCCCCCCCCCCC)c(=O)c4c5sc(=C(C#N)c6ccccc6)sc5c(c1=O)c2c34 (centres unmarked)",
    "unitAbbrev": "V",
    "half-wave potential E1/2^red1": -0.81
  },
  {
    "compound": "CCCCCCCCCCCCC(CCCCCCCCCC)Cn1c(=O)c2c3sc(=C(C#N)C#N)sc3c3c(=O)n(CC(CCCCCCCCCC)CCCCCCCCCCCC)c(=O)c4c5sc(=C(C#N)C#N)sc5c(c1=O)c2c34 (centres unmarked)",
    "unitAbbrev": "V",
    "half-wave potential E1/2^red1": "−0.09"
  },
  {
    "compound": "CCCCCCCCCCCCC(CCCCCCCCCC)CN1C(=O)c2c3sc(C#N)c(C#N)c3c3c4c(c5sc(C#N)c(C#N)c5c(c24)C1=O)C(=O)N(CC(CCCCCCCCCC)CCCCCCCCCCCC)C3=O (centres unmarked)",
    "unitAbbrev": "V",
    "half-wave potential E1/2^red1": 0.19
  }
]

* * *

Test: UV absorption spectrum in dichloromethane
Type: physicochemical
Settings: dichloromethane, 1×10^−6M

[
  {
    "compound": "CCCCCCCCCCCCC(CCCCCCCCCC)CN1C(=O)c2c3sc(C#N)c(C#N)c3c3c4c(c5sc(C#N)c(C#N)c5c(c24)C1=O)C(=O)N(CC(CCCCCCCCCC)CCCCCCCCCCCC)C3=O (centres unmarked)",
    "maximum UV absorption peak": "250˜318 nm"
  }
]

* * *

Assay: Cyclic voltammetry in dichloromethane
Type: physicochemical
Settings: vs SCE, dichloromethane, Bu4NPF6 0.1 M, 50 mV/s
measurementType: half-wave potential E1/2^red2 (V)

[
  {
    "compound": "CCCCCCCCCCC(CCCCCCCC)Cn1c(=O)c2c3sc(C#N)c(C#N)sc3c3c(=O)n(CC(CCCCCCCC)CCCCCCCCCC)c(=O)c4c5sc(C#N)c(C#N)sc5c(c1=O)c2c34 (stereo not shown) [Compound 15]",
    "measuredResult": "−0.64"
  },
  {
    "compound": "CCCCCCCCCCC(CCCCCCCC)Cn1c(=O)c2c3sc(=C(C#N)C(=O)OCC)sc3c3c(=O)n(CC(CCCCCCCC)CCCCCCCCCC)c(=O)c4c5sc(=C(C#N)C(=O)OCC)sc5c(c1=O)c2c34 (stereo not shown) [Compound 9]",
    "measuredResult": "−0.68"
  },
  {
    "compound": "CCCCCCCCCCCCC(CCCCCCCCCC)CN1C(=O)c2c3sc(C#N)c(C#N)c3c3c4c(c5sc(C#N)c(C#N)c5c(c24)C1=O)C(=O)N(CC(CCCCCCCCCC)CCCCCCCCCCCC)C3=O (stereo not shown) [Compound 18]",
    "measuredResult": "−0.40"
  },
  {
    "compound": "CCCCCCCCCCCCC(CCCCCCCCCC)Cn1c(=O)c2c3sc(=C(C#N)C#N)sc3c3c(=O)n(CC(CCCCCCCCCC)CCCCCCCCCCCC)c(=O)c4c5sc(=C(C#N)C#N)sc5c(c1=O)c2c34 (stereo not shown) [Compound 1]",
    "measuredResult": "−0.63"
  }
]

* * *

Assay: UV absorption spectrum in dichloromethane
Format: physicochemical
Conditions: calculated by equation (1), 1240 nm/λonset
Entries and their measured optical band gap follow.
measurementType: optical band gap (eV)

[
  {
    "molecule": "CCCCCCCCCCC(CCCCCCCC)Cn1c(=O)c2c3sc(C#N)c(C#N)sc3c3c(=O)n(CC(CCCCCCCC)CCCCCCCCCC)c(=O)c4c5sc(C#N)c(C#N)sc5c(c1=O)c2c34 (centres unmarked)",
    "unitAbbrev": "eV",
    "measuredResult": 2.0
  },
  {
    "molecule": "CCCCCCCCCCCCC(CCCCCCCCCC)Cn1c(=O)c2c3sc(=C(C#N)c4ccccc4)sc3c3c(=O)n(CC(CCCCCCCCCC)CCCCCCCCCCCC)c(=O)c4c5sc(=C(C#N)c6ccccc6)sc5c(c1=O)c2c34 (centres unmarked)",
    "unitAbbrev": "eV",
    "measuredResult": 1.8
  },
  {
    "molecule": "CCCCCCCCCCCCC(CCCCCCCCCC)Cn1c(=O)c2c3sc(=C(C#N)C#N)sc3c3c(=O)n(CC(CCCCCCCCCC)CCCCCCCCCCCC)c(=O)c4c5sc(=C(C#N)C#N)sc5c(c1=O)c2c34 (centres unmarked)",
    "unitAbbrev": "eV",
    "measuredResult": 2.1
  },
  {
    "molecule": "CCCCCCCCCCC(CCCCCCCC)Cn1c(=O)c2c3sc(=C(C#N)C(=O)OCC)sc3c3c(=O)n(CC(CCCCCCCC)CCCCCCCCCC)c(=O)c4c5sc(=C(C#N)C(=O)OCC)sc5c(c1=O)c2c34 (centres unmarked)",
    "unitAbbrev": "eV",
    "measuredResult": 2.0
  },
  {
    "molecule": "CCCCCCCCCCCCC(CCCCCCCCCC)CN1C(=O)c2c3sc(C#N)c(C#N)c3c3c4c(c5sc(C#N)c(C#N)c5c(c24)C1=O)C(=O)N(CC(CCCCCCCCCC)CCCCCCCCCCCC)C3=O (centres unmarked)",
    "unitAbbrev": "eV",
    "measuredResult": 2.2
  }
]
